# Test system: CF sputum proteases
# experimentDescription: in vitro
# measurementConditions: human, supernatant of pooled CF patient sputum, diluted 10-fold
observable: metabolised at 6 h, 100 μM

*Q* Identify measured metabolised at 6 h, 100 μM associated with CC(C)C[C@H](NC(=O)[C@H](CC(C)C)NC(=O)[C@H](CCCCN)NC(=O)[C@H](CC(C)C)NC(=O)[C@H](CC(C)C)NC(=O)[C@H](CCCCN)NC(=O)[C@H](CCCCN)NC(=O)[C@H](CC(C)C)NC(=O)[C@H](CC(C)C)NC(=O)[C@H](CCCCN)NC(=O)[C@H](CCCCN)NC(=O)[C@H](CC(C)C)NC(=O)[C@H](CC(C)C)NC(=O)[C@H](CCCCN)NC(=O)[C@@H](N)CC(C)C)C(N)=O
*A* ~80%

* * *

# Test system: CF sputum proteases
# experimentDescription: in vitro
# measurementConditions: human, supernatant of pooled CF patient sputum, diluted 10-fold
# Procedure: The peptide stability in CF patient sputum was tested as previously described.[52] Briefly, individual sputum samples from CF patients were pooled and diluted 10-fold with Dulbecco’s phosphate-buffered saline without calcium and magnesium. […] Residual peptide concentrations were determined via RP-HPLC on a Vydac C18 column (Grace Discovery Sciences, Deerfield, IL) using a linear gradient from 20% to 60% ACN in water (both containing 0.1% TFA) for 50 min. […]
The following molecules are shown together with reported metabolised at 48 h, 100 μM values.

Answered examples (2):
| molecule | systemName | metabolised at 48 h, 100 μM |
| --- | --- | --- |
| CC(C)C[C@H](NC(=O)[C@H](CC(C)C)NC(=O)[C@@H](CC(C)C)NC(=O)[C@@H](CC(C)C)NC(=O)[C@H](CC(C)C)NC(=O)[C@@H](CC(C)C)NC(=O)[C@H](CC(C)C)NC(=O)[C@H](CC(C)C)NC(=O)[C@@H](CCCCN)NC(=O)[C@H](CCCCN)NC(=O)[C@@H](N)CCCCN)C(=O)N[C@@H](CC(C)C)C(=O)N[C@H](CCCCN)C(=O)N[C@@H](CCCCN)C(=O)N[C@@H](CCCCN)C(N)=O (stereo in doubt) [Seg5D] | CF sputum proteases | ~30% |
| CC(C)C[C@H](NC(=O)[C@H](CC(C)C)NC(=O)[C@@H](CC(C)C)NC(=O)[C@H](CC(C)C)NC(=O)[C@H](CCCCN)NC(=O)[C@H](CCCCN)NC(=O)[C@@H](CCCCN)NC(=O)[C@@H](CCCCN)NC(=O)[C@H](CCCCN)NC(=O)[C@@H](CCCCN)NC(=O)[C@H](CC(C)C)NC(=O)[C@H](CC(C)C)NC(=O)[C@@H](CC(C)C)NC(=O)[C@H](CC(C)C)NC(=O)[C@@H](N)CC(C)C)C(N)=O (stereo in doubt) [Seg6D] | CF sputum proteases | ~30% |

Let us move to another entry and its metabolised at 48 h, 100 μM.
*Q* Identify measured metabolised at 48 h, 100 μM associated with CC(C)C[C@H](NC(=O)[C@H](CC(C)C)NC(=O)[C@@H](CCCCN)NC(=O)[C@H](CC(C)C)NC(=O)[C@H](CC(C)C)NC(=O)[C@H](CCCCN)NC(=O)[C@@H](CCCCN)NC(=O)[C@@H](CC(C)C)NC(=O)[C@H](CC(C)C)NC(=O)[C@@H](CCCCN)NC(=O)[C@H](CCCCN)NC(=O)[C@H](CC(C)C)NC(=O)[C@@H](CC(C)C)NC(=O)[C@H](CCCCN)NC(=O)[C@@H](N)CC(C)C)C(N)=O (stereo in doubt) [Amp1D]
*A* ~30%
